# System: P388 mouse leukemia cells
# TEST_CONDITIONS: 92 h
Where a SMILES comes first, the peptide text is derived from it. [ ]: non-standard residue; d: D form. The star is where a group is joined. NHCH2CH2OH = OCCN*; For = O=C*
RECORDED_ENDPOINT: cell viability/% (%)
Write it as a number; the unit % goes unstated.

Recorded cell viability/%, per entry:
MOLECULE	cell viability/% (%)
CC(C)C[C@@H](NC(=O)[C@H](C)NC(=O)CNC(=O)[C@@H](NC=O)C(C)C)C(=O)N[C@@H](C)C(=O)N[C@H](CC(C)C)C(=O)N[C@H](C(=O)N[C@H](CC(C)C)C(=O)N[C@@H](Cc1c[nH]c2ccccc12)C(=O)N[C@@H](C(=O)N[C@@H](Cc1c[nH]c2ccccc12)C(=O)N[C@H](CC(C)C)C(=O)N[C@@H](Cc1c[nH]c2ccccc12)C(=O)N[C@@H](C(=O)N[C@@H](Cc1c[nH]c2ccccc12)C(=O)NCCO)C(C)C)C(C)C)C(C)C [compound 6096] (For-VGA[dL]A[dL]V[dL]W[dV]W[dL]W[dV]W-NHCH2CH2OH)	7.3
CC(C)C[C@@H](NC(=O)[C@H](Cc1c[nH]c2ccccc12)NC(=O)[C@@H](CC(C)C)NC(=O)[C@H](Cc1c[nH]c2ccccc12)NC(=O)[C@@H](CC(C)C)NC(=O)[C@H](Cc1c[nH]c2ccccc12)NC(=O)[C@H](NC(=O)[C@@H](NC(=O)[C@H](NC(=O)[C@H](C)NC(=O)[C@H](NC(=O)[C@H](C)NC(=O)CNC(=O)[C@@H](NC=O)C(C)C)C(C)C)C(C)C)C(C)C)[C@H](C)O)C(=O)N[C@@H](Cc1c[nH]c2ccccc12)C(=O)NCCO [compound 12287] (For-VGA[dV]A[dV]V[dT]W[dL]W[dL]W[dL]W-NHCH2CH2OH)	100.0
CC(C)C[C@@H](NC(=O)[C@H](C)NC(=O)CNC(=O)[C@@H](NC=O)C(C)C)C(=O)N[C@@H](C)C(=O)N[C@@H](C(=O)N[C@H](C(=O)N[C@H](CC(C)C)C(=O)N[C@@H](Cc1c[nH]c2ccccc12)C(=O)N[C@H](CC(C)C)C(=O)N[C@@H](Cc1c[nH]c2ccccc12)C(=O)N[C@H](CC(C)C)C(=O)N[C@@H](Cc1c[nH]c2ccccc12)C(=O)N[C@H](CC(C)C)C(=O)N[C@@H](Cc1c[nH]c2ccccc12)C(=O)NCCO)C(C)C)C(C)C [compound 9628] (For-VGA[dL]A[dV]V[dL]W[dL]W[dL]W[dL]W-NHCH2CH2OH)	0.0
CC(C)C[C@@H](NC(=O)[C@H](Cc1c[nH]c2ccccc12)NC(=O)[C@H](NC(=O)[C@@H](NC(=O)[C@H](NC(=O)[C@H](C)NC(=O)[C@H](NC(=O)[C@H](C)NC(=O)CNC(=O)[C@@H](NC=O)C(C)C)C(C)C)C(C)C)C(C)C)C(C)C)C(=O)N[C@@H](Cc1c[nH]c2ccccc12)C(=O)N[C@H](CC(C)C)C(=O)N[C@@H](Cc1c[nH]c2ccccc12)C(=O)N[C@@H](C(=O)N[C@@H](Cc1c[nH]c2ccccc12)C(=O)NCCO)[C@H](C)O [compound 5172] (For-VGA[dV]A[dV]V[dV]W[dL]W[dL]W[dT]W-NHCH2CH2OH)	100.0
CC(C)C[C@@H](NC(=O)[C@H](C)NC(=O)[C@H](NC(=O)[C@H](C)NC(=O)CNC(=O)[C@@H](NC=O)C(C)C)C(C)C)C(=O)N[C@H](C(=O)N[C@@H](C(=O)N[C@@H](Cc1c[nH]c2ccccc12)C(=O)N[C@@H](C(=O)N[C@@H](Cc1c[nH]c2ccccc12)C(=O)N[C@@H](C(=O)N[C@@H](Cc1c[nH]c2ccccc12)C(=O)N[C@H](CC(C)C)C(=O)N[C@@H](Cc1c[nH]c2ccccc12)C(=O)NCCO)C(C)C)C(C)C)[C@H](C)O)C(C)C [compound 9738] (For-VGA[dV]A[dL]V[dT]W[dV]W[dV]W[dL]W-NHCH2CH2OH)	100.0

Item CC(C)C[C@@H](NC(=O)[C@H](C)NC(=O)CNC(=O)[C@@H](NC=O)C(C)C)C(=O)N[C@@H](C)C(=O)N[C@H](CC(C)C)C(=O)N[C@H](C(=O)N[C@H](CC(C)C)C(=O)N[C@@H](Cc1c[nH]c2ccccc12)C(=O)N[C@H](CC(C)C)C(=O)N[C@@H](Cc1c[nH]c2ccccc12)C(=O)N[C@@H](C(=O)N[C@@H](Cc1c[nH]c2ccccc12)C(=O)N[C@H](CC(C)C)C(=O)N[C@@H](Cc1c[nH]c2ccccc12)C(=O)NCCO)[C@H](C)O)C(C)C [compound 2283] (For-VGA[dL]A[dL]V[dL]W[dL]W[dT]W[dL]W-NHCH2CH2OH) has what recorded cell viability/%?
100.0

And then CC(C)C[C@@H](NC(=O)[C@H](C)NC(=O)CNC(=O)[C@@H](NC=O)C(C)C)C(=O)N[C@@H](C)C(=O)N[C@H](CC(C)C)C(=O)N[C@H](C(=O)N[C@@H](C(=O)N[C@@H](Cc1c[nH]c2ccccc12)C(=O)N[C@@H](C(=O)N[C@@H](Cc1c[nH]c2ccccc12)C(=O)N[C@H](CC(C)C)C(=O)N[C@@H](Cc1c[nH]c2ccccc12)C(=O)N[C@@H](C(=O)N[C@@H](Cc1c[nH]c2ccccc12)C(=O)NCCO)C(C)C)C(C)C)C(C)C)C(C)C [compound 4297] (For-VGA[dL]A[dL]V[dV]W[dV]W[dL]W[dV]W-NHCH2CH2OH) , what is it?
2.3

And then CC(C)C[C@@H](NC(=O)[C@H](C)NC(=O)[C@H](NC(=O)[C@H](C)NC(=O)CNC(=O)[C@@H](NC=O)C(C)C)C(C)C)C(=O)N[C@H](C(=O)N[C@@H](C(=O)N[C@@H](Cc1c[nH]c2ccccc12)C(=O)N[C@H](CC(C)C)C(=O)N[C@@H](Cc1c[nH]c2ccccc12)C(=O)N[C@H](CC(C)C)C(=O)N[C@@H](Cc1c[nH]c2ccccc12)C(=O)N[C@@H](C(=O)N[C@@H](Cc1c[nH]c2ccccc12)C(=O)NCCO)C(C)C)C(C)C)C(C)C [compound 12789] (For-VGA[dV]A[dL]V[dV]W[dL]W[dL]W[dV]W-NHCH2CH2OH) , what is it?
9.6
